These measurements were taken from patent US8791132B2.

Biological target: rat adrenergic α1B receptor (Rattus norvegicus, UniProt P15823)
Construct: rat adrenergic α1B receptor obtained from Wistar Rat liver; from tissue; host or cells: Wistar rat liver
Sequence (P15823 whole entry): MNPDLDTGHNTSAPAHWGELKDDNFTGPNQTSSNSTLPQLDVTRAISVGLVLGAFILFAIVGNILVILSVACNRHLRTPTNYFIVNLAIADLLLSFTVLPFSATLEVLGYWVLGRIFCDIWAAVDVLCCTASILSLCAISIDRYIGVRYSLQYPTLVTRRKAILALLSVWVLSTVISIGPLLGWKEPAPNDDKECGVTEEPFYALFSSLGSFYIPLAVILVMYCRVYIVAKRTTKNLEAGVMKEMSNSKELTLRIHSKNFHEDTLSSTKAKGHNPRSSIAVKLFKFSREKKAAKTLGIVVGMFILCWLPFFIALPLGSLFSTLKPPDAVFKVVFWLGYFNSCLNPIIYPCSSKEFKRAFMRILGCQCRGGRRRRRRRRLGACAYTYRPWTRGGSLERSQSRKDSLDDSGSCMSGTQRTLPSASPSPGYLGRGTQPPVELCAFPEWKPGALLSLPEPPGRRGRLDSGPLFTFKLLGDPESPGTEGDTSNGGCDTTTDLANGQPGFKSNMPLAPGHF
Test: Radioligand binding, adrenergic α1B ([3H]Prazosin)
Conditions: compound at 0.1 μM; [3H]Prazosin; repeat datapoints each shown; 0.1 µM
MEASURED_PROPERTY: Percentage inhibition of ligand binding, Adrenergic α1B (0.1 μM)
Returns: string containing the numeric result and its unit.

Previously resolved entries follow.
{"columns": ["COMPOUND", "VAL"],
 "data": [
  ["CC(O)(Cn1c2c(c3cc(Cl)ccc31)C1CCCN1CC2)c1cccnc1 (centres unmarked) [II-130]", "43%"],
  ["CCN1CCc2c(c3cc(C)ccc3n2CC(O)c2ccc(C)cc2)C1 (centres unmarked) [compound 203]", "71%"],
  ["Cc1cc(C)c2c(c1)c1c(n2CC(O)c2ccncc2)CCN2CCCC12 (single isomer, unassigned) [II-125a]", "92%"],
  ["Cc1cnc2c(c1)c1c(n2CC(N)c2ccc(C#N)cc2)CCN(C)C1 (single isomer, unassigned) [159b]", "53%"],
  ["Cc1ccc2c(c1)c1c(n2CC(C)(N)c2cccnc2)CCN(C)C1 (single isomer, unassigned) [149b]", "16%"]
]}

The compound Cc1cnc2c(c1)c1c(n2CCc2cccnc2)CCN2CCCC12 (single isomer, unassigned) [134b] showed Percentage inhibition of ligand binding, Adrenergic α1B (0.1 μM) equal to 95%

The compound Cc1ccc2c(c1)c1c(n2CC(CC(O)C(C)(C)C)c2ccncc2)CCN(C)C1 (single isomer, unassigned) [II-227d] showed Percentage inhibition of ligand binding, Adrenergic α1B (0.1 μM) equal to 12%

The compound Cc1cnc2c(c1)c1c(n2CCc2ccncc2)CCN2CCCC12 (single isomer, unassigned) [II-244b] showed Percentage inhibition of ligand binding, Adrenergic α1B (0.1 μM) equal to 12%

The compound CN1CCc2c(c3ccccc3n2CC(C)(O)c2cccnc2)C1 (single isomer, unassigned) [173b] showed Percentage inhibition of ligand binding, Adrenergic α1B (0.1 μM) equal to 8%

The compound Cc1ccc2c(c1)c1c(n2CC(O)c2ccncc2Cl)CCN(C)C1 (single isomer, unassigned) [135a] showed Percentage inhibition of ligand binding, Adrenergic α1B (0.1 μM) equal to 60%

The compound CN1CCc2c(c3cc(C(F)(F)F)ccc3n2CC(C)(O)c2cccnc2)C1 (single isomer, unassigned) [174b] showed Percentage inhibition of ligand binding, Adrenergic α1B (0.1 μM) equal to 11%

The compound Cc1cnc2c(c1)c1c(n2CCc2cnc(C)nc2)CCN2CCCC12 (single isomer, unassigned) [IV-93b] showed Percentage inhibition of ligand binding, Adrenergic α1B (0.1 μM) equal to 65%

---

Target: human recombinant adrenergic α2A receptor (Homo sapiens, UniProt P08913)
Construct: expressed in transfected cells; host or cells: insect Sf9 cells
Sequence (P08913 whole entry): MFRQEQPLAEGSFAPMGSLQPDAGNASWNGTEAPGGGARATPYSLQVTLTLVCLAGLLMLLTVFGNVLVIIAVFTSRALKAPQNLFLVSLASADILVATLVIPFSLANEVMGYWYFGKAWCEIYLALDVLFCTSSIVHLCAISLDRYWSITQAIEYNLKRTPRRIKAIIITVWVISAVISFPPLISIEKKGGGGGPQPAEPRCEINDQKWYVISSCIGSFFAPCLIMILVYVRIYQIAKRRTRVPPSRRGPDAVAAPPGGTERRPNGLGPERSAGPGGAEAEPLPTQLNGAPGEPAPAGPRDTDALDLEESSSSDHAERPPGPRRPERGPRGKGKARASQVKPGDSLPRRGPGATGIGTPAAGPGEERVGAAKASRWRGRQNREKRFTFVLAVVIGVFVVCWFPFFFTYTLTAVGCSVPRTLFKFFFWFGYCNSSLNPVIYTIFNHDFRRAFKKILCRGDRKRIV
Assay: Radioligand binding, adrenergic α2A ([3H]MK-912)
Details: compound at 0.1 μM; [3H]MK-912; repeat assays, each datapoint shown; read-out: Percentage inhibition of ligand binding, Adrenergic α2A
Would you mind labelling by inhibition at 0.1 µM? At or over 20% is T, under is F.

{"columns": ["MOLECULE", "MEASURED_ON", "ASSIGNED_CATEGORY"],
 "data": [
  ["Cc1ccc2c(c1)c1c(n2CC(O)c2ccncc2)CCNC1 (single isomer, unassigned) [39b]", "human recombinant adrenergic α2A receptor (Homo sapiens, UniProt P08913)", "F"]
]}

Please find the next molecule below.
Inquiry: inhibition at 0.1 µM >= 20% for CCc1ccc(CCn2c3c(c4cc(C)ccc42)CN(C)CC3)cn1 ?
Reply text: T
